- measured.target: recombinant HIV-1-RT (Human immunodeficiency virus type 1 group M subtype B)
- assay: Reverse Transcriptase Colorimetric Assay
I'd be grateful if you could share measured IC50 for these entries.

Use these answered entries as a reference point.
CCCCCCCCCCCCCCCCCCCC#CCCCC(=O)O [1a, 5-Pentacosynoic acid] :: 24 µM
CCCCCCCC/C=C\CCCCCCCCCCCCCC(=O)O [Nervonic acid, cis-15-tetracosenoic acid] :: 12 µM
CCCCCCCCCCCCCCCC(=O)O [Palmitic acid] :: > 1000 µM
CCCCCCCCCCCCCC#CCCCCC(=O)O [6-Icosynoic acid] :: > 1000 µM
CCCCCCCCCCCCCCC/C=C\CCCCCCCC(=O)O [2b, (9Z)-9-Pentacosenoic acid] :: 54 µM

Working through the 3 compounds below one at a time, give IC50 for each.
1. CCCCCCCCCCCCCCCCCCC/C=C\CCCC(=O)O [2a, (5Z)-5-Pentacosenoic acid]
2. CCCCCCCCCCCCCCCCCCCCCCC#CC(=O)O [2-Pentacosynoic acid]
3. CCCCCCCCCCC#CCCCCC(=O)O [6-Heptadecynoic acid]

38 µM
566 µM
> 1000 µM

FYI, the data here is from paper PMC4841444.
